ASSAY SYSTEM: CB2 receptor (Homo sapiens, UniProt P34972)
Construct: expressed in transfected cells; host or cells: HEK293 (ATCC), stably transfected; membranes
Sequence (P34972 whole entry): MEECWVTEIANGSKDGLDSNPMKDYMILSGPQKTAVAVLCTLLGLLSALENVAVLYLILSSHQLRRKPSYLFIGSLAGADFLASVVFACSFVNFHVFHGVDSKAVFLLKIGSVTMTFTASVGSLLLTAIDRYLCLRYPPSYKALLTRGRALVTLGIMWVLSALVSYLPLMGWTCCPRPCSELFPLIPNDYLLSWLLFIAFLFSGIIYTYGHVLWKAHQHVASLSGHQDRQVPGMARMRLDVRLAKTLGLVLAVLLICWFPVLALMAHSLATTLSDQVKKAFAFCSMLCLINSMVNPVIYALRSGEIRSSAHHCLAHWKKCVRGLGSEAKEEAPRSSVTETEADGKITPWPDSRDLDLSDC
ASSAY DETAILS: Competitive radioligand binding assay, CB2
METRIC: Ki

Exam item: Indicate the recorded Ki value for this molecule: C[C@H]1CC[C@H]2[C@H](C1)c1c(O)cc(/C=C/c3ccccc3O)cc1OC2(C)C
Marked response: > 7.76 µM

---

A collection of molecules and their measured Percent displacement, CB2
ASSAY SYSTEM: CB2 receptor (Homo sapiens, UniProt P34972)
Construct: expressed in transfected cells; host or cells: HEK293 (ATCC), stably transfected; membranes
ASSAY DETAILS: Competitive radioligand binding assay, CB2
CONDITIONS: 10 μM; [3H]-CP55,940
Kindly write the number and append the unit.

{"CHEMICAL SMILES": "C[C@H]1CC[C@H]2[C@H](C1)c1c(O)cc(-c3cc4ccccc4o3)cc1OC2(C)C", "ASSAY SYSTEM": "CB2 receptor (Homo sapiens, UniProt P34972)", "METRIC": "Percent displacement, CB2", "VALUE": "13.7%"}
{"CHEMICAL SMILES": "C=C(C)[C@H]1CC[C@H](C)C[C@@H]1c1c(O)cc(/C=C/c2ccccc2)cc1O", "ASSAY SYSTEM": "CB2 receptor (Homo sapiens, UniProt P34972)", "METRIC": "Percent displacement, CB2", "VALUE": "65.4%"}
{"CHEMICAL SMILES": "C[C@@H]1C[C@@H]2c3c(O)cc(-c4cc5ccccc5o4)cc3OC(C)(C)[C@H]2C[C@H]1O", "ASSAY SYSTEM": "CB2 receptor (Homo sapiens, UniProt P34972)", "METRIC": "Percent displacement, CB2", "VALUE": "81.5%"}
{"CHEMICAL SMILES": "C[C@H]1CC[C@H]2[C@H](C1)c1c(O)cc(/C=C/c3ccccc3O)cc1OC2(C)C", "ASSAY SYSTEM": "CB2 receptor (Homo sapiens, UniProt P34972)", "METRIC": "Percent displacement, CB2", "VALUE": "55.5%"}
{"CHEMICAL SMILES": "C=C(C)[C@H]1CC[C@H](C)C[C@@H]1c1c(O)cc(-c2cc3ccccc3o2)cc1O", "ASSAY SYSTEM": "CB2 receptor (Homo sapiens, UniProt P34972)", "METRIC": "Percent displacement, CB2", "VALUE": "57.9%"}

Exam item: // fetch Percent displacement, CB2 for C[C@H]1CC[C@H]2[C@H](C1)c1c(O)cc(/C=C/c3ccccc3)cc1OC2(C)C ; system: CB2 receptor (Homo sapiens, UniProt P34972)
Marked response: 24.4%

Exam item: // fetch Percent displacement, CB2 for C=C(C)[C@H]1CC[C@H](C)C[C@@H]1c1c(O)cc(/C=C/c2ccccc2O)cc1O ; system: CB2 receptor (Homo sapiens, UniProt P34972)
Marked response: 56.8%

Where do these numbers come from? They come from paper PMC10361207.
